# target-system: human CXCR6 (Homo sapiens)
# Construct: expressed in transfected cells
# method: Radioligand Binding Assay (125I-CXCL16 displacement)
# condition-set: L1.2 cells stably transfected with human CXCR6 cDNA, 0.1 nM 125I-CXCL16, 4° C., three-hour incubation; read-out: Potency (IC50)
pIC50: −log10 of the molar value.
property: pIC50

> print(dat)
                                   molecule               target.system  value.observed
1  CC(C)[C@H](CO)C(=O)Nc1ccc(S(=O)(=O)Nc2cccc(OC(F)(F)F)c2)c(C#N)c1 [Example 1.482]  human CXCR6 (Homo sapiens)          ≥ 6.70
2  Cc1cc(NC(=O)c2ccnn2C)cc(F)c1S(=O)(=O)Nc1cccc(C(F)(F)F)c1 [Example 1.520]  human CXCR6 (Homo sapiens)    5.70 to 6.12
3  CCOc1cc(NC(=O)C(CO)C2CCOCC2)ccc1S(=O)(=O)Nc1cccc(OC(F)(F)F)c1 (stereo not shown) [Example 1.092]  human CXCR6 (Homo sapiens)    6.12 to 6.70
4  CCOc1cc(NC(=O)C(CO)c2ccccc2)ccc1S(=O)(=O)Nc1cccc(OC(F)(F)F)c1 (stereo not shown) [Example 1.473]  human CXCR6 (Homo sapiens)          ≥ 6.70
5  CCOc1cc(NC(=O)[C@@H](CO)c2ccccc2)ccc1S(=O)(=O)Nc1ccc(F)c(OC(F)(F)F)c1 [Example 1.208]  human CXCR6 (Homo sapiens)          ≥ 6.70
6  CCOc1cc(NC(=O)[C@@H](CO)C(C)C)ccc1S(=O)(=O)Nc1ccc(OC)c(C(F)(F)F)c1 [Example 1.005]  human CXCR6 (Homo sapiens)          ≥ 6.70
7  COc1cc(NC(=O)c2cc(C(F)(F)F)nn2C)ccc1S(=O)(=O)Nc1cccc(C(F)(F)F)c1 [Example 1.430]  human CXCR6 (Homo sapiens)    5.70 to 6.12

====

human CXCR6 (Homo sapiens, UniProt O00574): reported IC50 for various compounds.
Sequence (O00574 whole entry): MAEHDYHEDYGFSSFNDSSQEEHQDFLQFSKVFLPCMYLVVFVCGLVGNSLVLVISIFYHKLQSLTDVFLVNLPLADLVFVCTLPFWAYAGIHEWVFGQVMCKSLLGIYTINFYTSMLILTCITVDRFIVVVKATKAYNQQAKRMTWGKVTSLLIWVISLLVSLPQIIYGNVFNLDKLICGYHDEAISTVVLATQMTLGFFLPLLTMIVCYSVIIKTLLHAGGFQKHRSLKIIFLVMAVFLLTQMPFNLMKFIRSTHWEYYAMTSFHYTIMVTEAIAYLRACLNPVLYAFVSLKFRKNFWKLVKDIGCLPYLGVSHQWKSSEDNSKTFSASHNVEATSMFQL
property: IC50

> print(dat)
                                   compound    value.observed
1  CCOc1cc(NC(=O)c2cncnc2)ccc1S(=O)(=O)Nc1cccc(OC(F)(F)F)c1          ≤ 200 nM
2  CCOc1cc(NC(=O)C2CC=CC[C@H]2N)ccc1S(=O)(=O)Nc1cccc(OC(F)(F)F)c1 (mixture of isomers)    750 to 2000 nM
3  CCOc1cc(NC(=O)C2CC3C=CC2O3)ccc1S(=O)(=O)Nc1cccc(OC(F)(F)F)c1 (stereo not shown) [Example 1.508]          ≤ 200 nM
4  CCc1cc(NC(=O)c2ccnn2C)ccc1S(=O)(=O)Nc1cccc(C(F)(F)F)c1          ≤ 200 nM
5  CCOc1cc(NC(=O)C2CC=CC[C@H]2O)ccc1S(=O)(=O)Nc1ccc(C)c(OC(F)(F)F)c1 (stereo partly shown)          ≤ 200 nM
6  CCOc1cc(NC(=O)C(O)c2cccnc2)ccc1S(=O)(=O)Nc1cccc(OC(F)(F)F)c1 (stereo not shown)    750 to 2000 nM
7  CCOc1cc(NC(=O)[C@H]2CC=CC[C@@H]2C(=O)O)ccc1S(=O)(=O)Nc1ccc(C)c(OC(F)(F)F)c1 (racemic)  2000 to 20000 nM

====

Record set of IC50 for target or system human CXCR6 (Homo sapiens, UniProt O00574).
property: IC50

> print(dat)
                                    molecule                             target.system  property    value.observed
 1  CCOc1cc(NC(=O)[C@H](CO)c2ccccc2)ccc1S(=O)(=O)Nc1cccc(OC(F)(F)F)c1  human CXCR6 (Homo sapiens, UniProt O00574)      IC50     200 to 750 nM
 2  COc1cc(NC(=O)c2ccccc2)ccc1S(=O)(=O)Nc1cccc(C(F)(F)F)c1  human CXCR6 (Homo sapiens, UniProt O00574)      IC50     200 to 750 nM
 3  COc1cc(NC(=O)CC(C)(C)O)ccc1S(=O)(=O)Nc1cccc(C(F)(F)F)c1  human CXCR6 (Homo sapiens, UniProt O00574)      IC50  2000 to 20000 nM
 4  CC(C)[C@H](O)C(=O)Nc1ccc(S(=O)(=O)Nc2cccc(OC(F)(F)F)c2)c(Cl)c1  human CXCR6 (Homo sapiens, UniProt O00574)      IC50          ≤ 200 nM
 5  CCOC(=O)[C@H]1CC(C)=C(C)C[C@@H]1C(=O)Nc1ccc(S(=O)(=O)Nc2cccc(OC(F)(F)F)c2)c(OCC)c1  human CXCR6 (Homo sapiens, UniProt O00574)      IC50     200 to 750 nM
 6  CCOc1cc(NC(=O)C(O)c2ccc(C(F)(F)F)cc2)ccc1S(=O)(=O)Nc1cccc(OC(F)(F)F)c1 (stereo not drawn)  human CXCR6 (Homo sapiens, UniProt O00574)      IC50     200 to 750 nM
 7  COc1cc(NC(=O)[C@H]2CC[C@H](OC)CC2)ccc1S(=O)(=O)Nc1cccc(C(F)(F)F)c1  human CXCR6 (Homo sapiens, UniProt O00574)      IC50  2000 to 20000 nM
 8  CCOc1cc(NC(=O)[C@@H](O)C(C)C)ccc1S(=O)(=O)Nc1ccc(C(F)(F)F)cc1  human CXCR6 (Homo sapiens, UniProt O00574)      IC50     200 to 750 nM
 9  CCc1cc(C(=O)Nc2ccc(S(=O)(=O)Nc3cccc(C(F)(F)F)c3)c(OC)c2)n(C)n1  human CXCR6 (Homo sapiens, UniProt O00574)      IC50    750 to 2000 nM
10  Cc1cc(NC(=O)c2ccccc2Cl)ccc1S(=O)(=O)Nc1cccc(C(F)(F)F)c1  human CXCR6 (Homo sapiens, UniProt O00574)      IC50     200 to 750 nM
11  CCOc1cc(NC(=O)[C@@H](O)C(C)C)ccc1S(=O)(=O)Nc1ccc(C)c(C(C)C)c1  human CXCR6 (Homo sapiens, UniProt O00574)      IC50          ≤ 200 nM
12  CCOc1cc(NC(=O)C(O)C2CC2)ccc1S(=O)(=O)Nc1cccc(OC(F)(F)F)c1 (stereo not drawn)  human CXCR6 (Homo sapiens, UniProt O00574)      IC50          ≤ 200 nM
13  CCOc1cc(NC(=O)[C@@H](CO)C(C)C)ccc1S(=O)(=O)Nc1cccc(C(C)(C)C)c1  human CXCR6 (Homo sapiens, UniProt O00574)      IC50          ≤ 200 nM
14  CCc1cc(NC(=O)c2ccccc2)ccc1S(=O)(=O)Nc1cccc(C(F)(F)F)c1  human CXCR6 (Homo sapiens, UniProt O00574)      IC50     200 to 750 nM
15  CCOc1cc(NC(=O)[C@@H](CO)C(C)C)ccc1S(=O)(=O)Nc1ccc(F)c(OC(F)(F)F)c1  human CXCR6 (Homo sapiens, UniProt O00574)      IC50          ≤ 200 nM

====

Measured IC50 of individual entries
# target-system: human CXCR6 (Homo sapiens, UniProt O00574)
property: IC50

> print(dat)
                                    molecule  property    value.observed
 1  CCOc1cc(NC(=O)[C@@H](N)C(C)O)ccc1S(=O)(=O)Nc1cccc(OC(F)(F)F)c1 (stereo partly drawn)      IC50          ≤ 200 nM
 2  Cc1cc(NC(=O)C(C)(C)C)ccc1S(=O)(=O)Nc1cccc(C(F)(F)F)c1      IC50  2000 to 20000 nM
 3  COc1cc(NC(=O)C(CO)c2ccccc2)ccc1S(=O)(=O)Nc1cccc(C(F)(F)F)c1 (stereo not drawn)      IC50     200 to 750 nM
 4  COc1cc(NC(=O)[C@@H]2CCC[C@H](OC)C2)ccc1S(=O)(=O)Nc1cccc(C(F)(F)F)c1      IC50  2000 to 20000 nM
 5  CCOc1cc(NC(=O)[C@@H]2COC[C@@H]2O)ccc1S(=O)(=O)Nc1cccc(OC(F)(F)F)c1 (racemic)      IC50     200 to 750 nM
 6  COc1cc(NC(=O)c2ccnn2C)ccc1S(=O)(=O)Nc1ccc(C#N)cc1      IC50  2000 to 20000 nM
 7  Cc1cc(NC(=O)c2cscn2)ccc1S(=O)(=O)Nc1cccc(C(F)(F)F)c1      IC50  2000 to 20000 nM
 8  Cc1cc(NC(=O)C2CCOCC2)ccc1S(=O)(=O)Nc1cccc(C(F)(F)F)c1      IC50     200 to 750 nM
 9  C=Cc1ccc(NS(=O)(=O)c2ccc(NC(=O)[C@@H](CO)C3CC3)cc2OCC)cc1C      IC50          ≤ 200 nM
10  CCOc1cc(NC(=O)C2CCS(=O)(=O)CC2)ccc1S(=O)(=O)Nc1cccc(OC(F)(F)F)c1      IC50  2000 to 20000 nM
11  COc1cc(NC(=O)c2ccnn2C)ccc1S(=O)(=O)Nc1ccc(OC(F)(F)F)c(Cl)c1      IC50    750 to 2000 nM
12  CCOc1cc(NC(=O)C(CC)CO)ccc1S(=O)(=O)Nc1cccc(OC(F)(F)F)c1 (stereo not drawn)      IC50          ≤ 200 nM
13  CCOc1cc(NC(=O)[C@@H](O)c2ccccc2)ccc1S(=O)(=O)Nc1ccc(C)c(OC(F)(F)F)c1      IC50          ≤ 200 nM
14  COc1cc(NC(=O)C2CC3C=CC2O3)ccc1S(=O)(=O)Nc1cccc(C(F)(F)F)c1 (stereo not drawn)      IC50     200 to 750 nM
15  CCOc1cc(NC(=O)C2(COC)CC2)ccc1S(=O)(=O)Nc1cccc(OC(F)(F)F)c1      IC50    750 to 2000 nM
